The reported measurements were obtained from the supplement of paper PMC9170038.

Test system: MS2 coat protein
Test: apparent KD of MS2 coat protein; higher = weaker reporter binding
Settings: Eterna round: R107; input ligand: theophylline 20 uM
quantity-kind: apparent KD of MS2 coat protein (µM)

UGGCGAGAAGGAAGGAGCGUCAGCUGAGUCACAUGAGGAUCACCCAUGUAGGACAUGGUGUGACAGGUAGGUCGCCUUCUGCCCU [SS-ArgB18]: 0.0257
ACAUCCAGGUUAAUCGUGGGCAUGGUCGAUACCAGUAUUUUAAUCUACCCUUGGCAGCGACAUGAGGAUCACCCAUGUGCGAUGA [XTheo A #13]: 0.0337
UCGCUCGCCGAAAGGCGAGCGAGUUGCGAUACCAGCCCGGAAACGGGCCCUUGGCAGCGCACAUGAGGAUCACCCAUGUCAUGUU [#1 Exclusion - Theophylline A Attempt #3 (HarryS)]: 0.0253
UGACAUUGCUCAGAUACCAGACAUGAGGAUCACCCAUGUGCCAAACGUACAAUAAUAAAUGUCCCUUGGCAGCUGAGCAAUGUCU [TheoBX 14 #MS2Left #Theo2]: 0.0173
ACUCGAGGUGGAAGGAGCGGGAGACAUGAGCAUCACAUGAGGAUCACCCAUGUAGGAUCAUCCCAGGUAGGUCGCCAUGUCGAAA [avtamullin]: 0.147
AUUAAUAGUUGUGAUACCAGACGAACAUGAGGAUCACCCAUGUAACUUUUAGGUGUUGUAGUCCCUUGGCAGCACUAUUUAGUUA [JR_SSTheophyB_Sub014]: 0.0484
CAAUAUAUAGCGGCCGCCACUUACUCAUGAGGUAACAACAUGAGGAUCACCCAUGUUUGAGGAUCAAGGACCGGGCUAUAUAUUG [AstrosSSTryB#6]: 0.0319
AUACCUAGUGAGUCGUGUUUCUUUUCAGAUACCAGACUUUUCGUUGUCCCUUGGCAGCUGUUUUACAUGAGGAUCACCCAUGUUG [JR_ExcTheophyA_Sub007]: 0.0184
CGCAACAUGAGGAUCACCCAUGUAAUGACGCGAGGACCGGUACGGCCGCCACUCGCCUGGCAGUGAGCGCAUGCGGCCUGGGUAU [Exclusion Tryp A GF8]: 0.0165
UUAAUGGAGCUUUUAUUUACGAUUUCUGAUACCAGUGUUUCAUUUCACCCUUGGCAGCAGUGACAUGAGGAUCACCCAUGUAAUA [JR_Nu_SSTheophyA_Sub021]: 0.0338
GUAGCUAUCGCGGCCGCCACUAAACCGGAAACGGAACAGUAGGAUCACCAUUGUGGCGAAAGCCAUAGGACCGGGCGAUAGCUAC [TryBS - Double Magnet system 2]: 0.83
ACGAUAGGACAUGAGGAUCACCCAUGUGAUACCAGCCUGGAAACAGGCCCUUGGCAGCACAAAUACUCCAGAAACCUAUCGAAAA [MAT - Exclusion Theophlline A - Mod of Eli - D5]: 0.263

###

Test system: K4 kissing-loop RNA reporter
Experiment: apparent KD of K4 kissing-loop reporter; higher = weaker reporter binding
Conditions: Eterna round: R107; input ligand: none
Each entry below lists one item and its recorded apparent KD of K4 kissing-loop reporter value.
quantity-kind: apparent KD of K4 kissing-loop reporter

ACUGAAAGAUCUGAUACCAGACUUUUUGUAUUUAUUAAAACUAGUGAUGUUAGUUUAUCUGUCCCUUGGCAGCAGUUUCUACAGA [JR_Nu_ExcTheophyB_Sub023]: 0.144 µM
AAAACGCUGGAUGAAUAACAUCUAGCGAAUCGAGGACCGGUACGGCCGCCACUCGGAGCUAAACUGCGAGUGAUGUUCGUAAAAU [Mat - Mod of OpenEnded 3 - D18]: 0.588 µM
UAGCGUAUCAGAGGAUAUGAUAUGUUAUGCAGUGAUGUUGCAUGAUGUAGCAGAAUUCUGAGUGUAUCAGAAGGCUGAUAUGCUA [FMN B Ex t3]: 0.0905 µM
GGCUUAUUCUAUGAUACCAGCGUCACAUCGGGACUGCGCACGCAGCAGGCGAGUGAUGUUCGCCCUUGGCAGCAUCUCGGCGACU [theeternabot_exclusion_KL_Theo_B_26]: 0.249 µM
AAACCCAGUGAUGUUGGGAAUCAGUUGAGGGAGGAUAUUGGUAAUACAAGAAGGCCCGGCUGCGGGUGAUGUUCGCAUUAGGGCC [Exclusion FMN A GF17]: 0.152 µM
AAACGUUGGUGCGAUACCAGCUGAUCGGAAACGAUCUUGCUGGAGUGAUGUUCCAAGUAAAGCCCUUGGCAGCGCACCGACGAAA [MAT - Same State Theophlline B - Mod of Eli - D22]: 0.0865 µM

###

Each entry below lists one item and its recorded apparent KD of K4 kissing-loop reporter value.
Test system: K4 kissing-loop RNA reporter;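 also: bound reporter read as fluorescence of individual clusters on recovered sequencing chips by microscopy, with normalized cluster intensities fitted with a binding model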
Assay: apparent KD of K4 kissing-loop reporter; higher = weaker reporter binding
Settings: Eterna round: R107; input ligand: arginine 13.2 mM
quantity-kind: apparent KD of K4 kissing-loop reporter

UCGGUAUAGUGAUGUUAUAUAGAGAGUGAUACCAGUUUAGAGAGAAACCCUUGGCAGCAUAGAAGAGUAUCAUUGGAGGAGGAGG [#20 K4 Theophylline A Exclusion]: 0.417 µM
AAAACGCUGGAUGAAUAACAUCUAGCGAAUCGAGGACCGGUACGGCCGCCACUCGGAGCUAAACUGCGAGUGAUGUUCGUAAAAU [Mat - Mod of OpenEnded 3 - D18]: 0.223 µM
UUAGUCUAGAGAAGGAGCGAGUGAUGUUCGCAUGCUAUGAUGAAUUCAUCAUAGUUUAAUCCUCAGGUAGGUCGCUCUAGACAUU [AK7 Exc Arginine B]: 0.339 µM
AACGUUUUGAGAAGGAGCGCGUUCAGCAGUGAUGUUGCUUUACUUCAAUUUCUAGAUAAUUCGCAGGUAGGUCGCUCAAUACGUA [JR_Nu_ExcArginiB_Sub023]: 0.511 µM
ACGUGCACCAGUGAUGUUGGAAAAUAUGAAGGAGCGGGUGAAAACCCAGGUAGGUCGCAUAAUAGCACGAGCCACGAAAGUGGCA: 0.138 µM
AAAAUAAACCAGUGAUGUUGGUAACCAGAUACCAGCGACGAAAGUCGCCCUUGGCAGCUGUGGACGUACAAAAUAAGUACGUCCU: 0.264 µM
GGUGUGCCAGUGAUGUUGGCAUAAACUGAAGGAGCGCGUGAAAACGCAGGUAGGUCGCAGAACCUUGCCAACUAUUUUAUUCACC [Ex Arginine A K4 25]: 0.174 µM
ACACUUUACGUAGGAUAUGCGACGAGUGAUGUUCGUCAGGCGGCUUUAGCUUAAUCAGGCCGCCUAGCAGAAGGACGGGCAGUGU [Zaretiesre]: 0.149 µM
GGAUCCACCAGUGAUGUUGGAGAAAACUUCAAGGAUAUGACGAAAGUCAGAAGGUGGUAGACUGGACAAAGUCCGGUGGGAUCCA [FmnA10 U29+G78]: 0.214 µM
AGAUUCGACACGGCCGCCACUUCCAGUGGCUGGUGUCAUGGUGCACGUGAGUGAUGUUUAUGUGGAAGGACCGGGUGUUGAGUCU [KL-XTryp-B2 #analogue]: 0.472 µM
AUUAAUUUCAGAGGAUAUCGUUAUUUUAUUUAAUUUAUUCAUUUAUGCAGUGAUGUUGCUAUUAUUCGAGAAGGCUGAUUUAUAA [JR_ExcFMNB_Sub006]: 0.0835 µM
UAAGAGUCUCUGCAAUUAGCAGAGACUCAACGAGGACCGGUACGGCCGCCACUCGGGUCCUAGAGUGAUGUUCUAAUAAUAUAAU [AK1.1 SS Tryptophan A]: 0.359 µM
GGAGUUACCUGGGAUACCAGUCGGAGUCCUAGAGCUCGGAGUGAUGUUCUGGGAUGUUUCGGCCCUUGGCAGCUCUGGGACUCCC [#2 Exclusion - Theophylline B Attempt #11 (HarryS)]: 0.47 µM
AAGUGAUGUUGUAGUGAUGUUGUGAUGUUGCAGGAUAUAUAGUGAUGUAGAAGGGUAUGUGCAGUGUUGUUAUUUGAGUGUUGAU [zffdmullin]: 0.0414 µM
AGUGAUAUAUGAGGAUAUGGGUUUGUUAAUGAGUUAUUUUUAGUGUUGUUUGGUUAGUGAUGUUAUUUAGAAGGCGUGAGUGAUG [rrwswwmjmullin]: 0.0894 µM
UAUAGACAAGUGAUGUUUGUCAUAUCCGAAGGAGCGUCUUCUAAGACAGGUAGGUCGCGGAUUAAUUUUGUUAUGAUACUAUUUA [JR_SSArginiA_Sub016]: 0.12 µM
UUUUUGGAGAAUUAUAGUGAUGUUAUGAAGAAGGAUAUCUAAAGAUGGAGAAGGUUUAAUAGUUAAGGGAUGGAGGGUGGGUGGG [ExFMNA.P]: 0.155 µM
GUAGGAUGAGGAGGAGGAUGAAUUACUGAAGGAGCGCAUAUAAAUGCAGGUAGGUCGCGGUAAAGAAGUAUAGUGAUGUUAUAUA [SSArgA.G]: 0.636 µM
UUACUACCCAGUGAUGUUGGGUAGCGGCGGCGAGGACCGGUACGGCCGCCACUCGGCGCACGGGAGUGAUGUUCCUACCGUUAGG [Same state Tryptophan A GF 8]: 0.455 µM
AGGCCCGGCCGAAAGGCCGGGCCAAGAGAUACCAGCAGCGAAAGCUGCCCUUGGCAGCUCACUUAGUGAUGUUAAGAAUAGAACA [SS Theo A Tesla 1]: 0.464 µM
AGAUCUGUAACAGAUACCAGAGGACGAUGAUCGGAUAGUGAUGUUAUCUAUCAGUCGUCGCUCCCUUGGCAGCUGUUACAGAUCA [Omei KL Theo B SS B v2]: 0.45 µM
CCGGCCCGGCCGGAUACCAGUGCGCCGCUGGGAACUGCGGGCCCAGAGUGAUGUUCGGGACACCCUUGGCAGCCGCCUGGGUCGC [#2 Same State - Theophylline B Attempt #25 (HarryS)]: 0.345 µM
UGAUACCAGACGGCCGCCACUGGUGCAUGUCAAAGACAUGCUAACCAAAUCGUGGAGUGAUGUUCCAGGACCGGGUCUGGUAUCU [TrypBX 22 #SwitchBubble #Palindromic #StaticStem]: 0.207 µM
